System: K562 (human myeloid leukaemia)
Experiment: MTT cytotoxic test, K562
Type: cell-based
Conditions: Homo sapiens, K562; K 562 cells, mean (x); read-out: Cytotoxic and antiproliferation activity MTT test (IC50, μM) K 562 x

{"cpd-smiles": "O=c1c(O)c(-c2ccc(NCCCO)c([N+](=O)[O-])c2)[nH]c2ccccc12", "IC50, µM": 6.2}

---

System: CEM (T-lymphoblastic leukaemia)
Assay: MTT cytotoxic test, CEM
Assay type: cell-based
Conditions: CEM cells, mean (x); read-out: Cytotoxic and antiproliferation activity MTT test (IC50, μM) CEM x

{"cpd-smiles": "O=c1c(O)c(-c2ccc3c(c2)ncn3CCSCCO)[nH]c2ccccc12", "IC50, µM": 0.8}
{"cpd-smiles": "O=c1c(O)c(-c2ccc(Cl)c([N+](=O)[O-])c2)[nH]c2ccccc12", "IC50, µM": 2.6}
{"cpd-smiles": "CCN(C)c1ccc(-c2[nH]c3ccccc3c(=O)c2O)cc1[N+](=O)[O-]", "IC50, µM": 1.7}
{"cpd-smiles": "O=c1c(O)c(-c2ccc(NCCO)c([N+](=O)[O-])c2)[nH]c2ccccc12", "IC50, µM": 2.7}
{"cpd-smiles": "CCCN(CCC)c1ccc(-c2[nH]c3ccccc3c(=O)c2O)cc1[N+](=O)[O-]", "IC50, µM": 0.7}
{"cpd-smiles": "CCN(CC)CCn1cnc2cc(-c3[nH]c4ccccc4c(=O)c3O)ccc21", "IC50, µM": 5.2}
{"cpd-smiles": "O=c1c(O)c(-c2ccc(NCCCCO)c([N+](=O)[O-])c2)[nH]c2ccccc12", "IC50, µM": 0.7}
{"cpd-smiles": "O=c1c(O)c(-c2ccc(NCCCCCO)c([N+](=O)[O-])c2)[nH]c2ccccc12", "IC50, µM": 1}
{"cpd-smiles": "O=c1c(O)c(-c2ccc(N(CCO)CCO)c([N+](=O)[O-])c2)[nH]c2ccccc12", "IC50, µM": 0.3}
{"cpd-smiles": "CCCCCCn1cnc2cc(-c3[nH]c4ccccc4c(=O)c3O)ccc21", "IC50, µM": 2.8}
{"cpd-smiles": "CC(C)Nc1ccc(-c2[nH]c3ccccc3c(=O)c2O)cc1[N+](=O)[O-]", "IC50, µM": 1.6}
{"cpd-smiles": "C/C=C/CCSc1ccc(-c2[nH]c3ccccc3c(=O)c2O)cc1[N+](=O)[O-]", "IC50, µM": 2.1}

Reference for the values: patent US8299092B2
